- Assay Method Text: Confirmation screen for delayed death inhibitors of the malarial parasite plastid, 48 hour incubation; note: nearly all actives have a fitted effect of over 65% in size
- Condition Description: P. falciparum-infected erythrocytes, luciferase growth; series mostly up to 28.7 µM
Hit rate of the full screen: of about 2,300 compounds, about 1,200 (52%) were called active. Another 34% or so got no clear call; they are omitted. Calls come from the whole dose curve; as a rule, active = well fitted inhibition curve with a large enough effect; inconclusive = small, poorly fitted or top-dose-only effect, or effect the other way; inactive = no such curve, though single readings can be large or run the other way. The set was probably picked from earlier hits. This is one part of the list.
Give one outcome, nothing more. List: 1.0 (active), 0.0 (inactive)

CC(C)C[C@H](NC(=O)c1nc[nH]c1C(=O)N(C)Cc1ccccc1)C(=O)OC(C)(C)C ... 1.0
COc1cccc(S(=O)(=O)NCc2ccc(C(=O)NCc3ccccn3)cc2)c1 ... 0.0
CCN(CC)S(=O)(=O)c1cccc(NC(=O)c2cc(-c3cccs3)nn2-c2ccccc2)c1 ... 1.0
C[C@H](NC(=O)c1nc[nH]c1C(=O)N[C@H](C)c1ccccc1)C(=O)OCc1ccccc1 ... 0.0

Ask | Any idea what this test logged for CC1CCN(C(=O)C2CCCN(c3ncnc4c3nc3n4CCCCC3)C2)CC1 (stereo unspecified) ?
Reply | 1.0

Ask | Any idea what this test logged for `COc1cnc(-c2ccccn2)nc1Oc1ccc(C(C)(C)C)cc1` ?
Reply | 1.0

* * *

- Assay Method Text: Confirmation screen for delayed death inhibitors of the malarial parasite plastid, 48 hour incubation; note: nearly all actives have a fitted effect of over 65% in size; note: potency is the fitted concentration of half-maximal effect
- Condition Description: P. falciparum-infected erythrocytes, luciferase growth; series mostly up to 28.7 µM
In all, about 2,300 compounds went through this assay and about 1,200 (52%) were called active. Inconclusive results (about 34%) are left out. So high a share suggests a set chosen from earlier hits. The list shows a part of the results.
Parameter: Potency

CC1(C)Cc2c(ccc3ccccc23)C(c2cc3ccccc3oc2=O)=N1 ... 12.6 µM (active)
COc1cccc(/C=N/NC(=O)c2nc(-c3ccccc3)cc(-c3ccccc3)n2)c1O ... 6.31 µM (active)

Give measured Potency for every item shown.
1. O=C(CCl)Nc1ccc(S(=O)(=O)Nc2nccs2)cc1
2. CCN(CC)CCn1c2c(c(SCC(=O)Nc3nc4ccccc4s3)nc1=O)CCCC2

Reply |
1: 2.24 µM (active); 2: 7.08 µM (active)

* * *

- Assay Method Text: Confirmation screen for delayed death inhibitors of the malarial parasite plastid, 48 hour incubation; note: nearly all actives have a fitted effect of over 65% in size
- Condition Description: P. falciparum-infected erythrocytes, luciferase growth; series mostly up to 28.7 µM
Out of some 2,300 compounds screened, about 1,200 (52%) were called active. Another 34% or so got no clear call; they are omitted. The call rests on the fitted dose curve; in most records, active means well fitted inhibition curve with a large enough effect; inconclusive means small, poorly fitted or top-dose-only effect, or effect the other way; inactive means no such curve, though single readings can be large or run the other way. So high a share suggests a set chosen from earlier hits. Some of the results follow.
Give one outcome, nothing more. List: 1 (yes) for active, 0 (no) for inactive

CS(=O)(=O)Nc1ccc(C2=NN(C(=O)c3ccco3)C(c3ccc(F)cc3)C2)cc1 (stereo not given) ... 1 (yes)
CCOc1ccc(/C=C2\SC(=S)N(C(C(=O)O)c3ccccc3)C2=O)cc1OC (stereo not given) ... 0 (no)
O=C(NC1C=CS(=O)(=O)C1)c1sc2ccccc2c1Cl (stereo not given) ... 1 (yes)
O=C(CCl)NCc1c(Cl)cccc1-n1cccc1 ... 1 (yes)

Please find the next compound below.
Ask | Any idea what this test logged for `CSC1=NC(C)(C)C=C(/C=C/c2ccc(Cl)cc2)N1` ?
Reply | 1 (yes)

* * *

- Assay Method Text: Confirmation screen for delayed death inhibitors of the malarial parasite plastid, 48 hour incubation; note: nearly all actives have a fitted effect of over 65% in size
- Condition Description: P. falciparum-infected erythrocytes, luciferase growth; series mostly up to 28.7 µM
Out of some 2,300 compounds screened, about 1,200 (52%) were called active. Inconclusive results (about 34%) are left out. Calls come from the whole dose curve; as a rule, active = well fitted inhibition curve with a large enough effect; inconclusive = small, poorly fitted or top-dose-only effect, or effect the other way; inactive = no such curve, though single readings can be large or run the other way. So high a share suggests a set chosen from earlier hits. The list shows a part of the results.
Give one outcome, nothing more. List: TRUE (active), FALSE (inactive)

For orientation, consider the following solved cases.
O=C(c1ccc(OC2CCN(Cc3ccccc3OC(F)F)CC2)cc1)N1CCCC1 ... TRUE
CC(=O)O[C@@]12CO[C@@H]1C[C@H](O)[C@@]1(C)C(=O)[C@H](O)C3=C(C)[C@@H](OC(=O)C(O)[C@@H](NC(=O)OC(C)(C)C)c4ccccc4)C[C@@](O)([C@@H](OC(=O)c4ccccc4)[C@H]21)C3(C)C (stereo partly drawn) ... TRUE
COc1ccc(/C=C2\N=C(SC)N(c3ccccc3OC)C2=O)cc1 ... TRUE
Cc1[nH]c(C)c(C(=O)/C=C/c2ccc([N+](=O)[O-])cc2)c1C ... TRUE
Cn1nccc1C(=O)N1CCc2c([nH]c3ccccc23)C1c1ccc(F)cc1 (stereo not drawn) ... TRUE
CCC/C(=N\NC(=O)c1ccco1)c1ccc(Cl)s1 ... TRUE

Ask | Any idea what this test logged for `O=C(N[C@@H](Cc1ccccc1)C(=O)CCl)OCc1ccccc1` ?
Reply | FALSE

Ask | Any idea what this test logged for OC(c1cc(C(F)(F)F)nc2c(C(F)(F)F)cccc12)C1CCCCN1 (stereo not drawn) ?
Reply | TRUE
